- Measured Target: T1, human MCH-2R (human, UniProt Q969V1 1-340)
- T1 construct: Function: 293AEQ17/MCH-2R cells; also called hMCH-2R
- T1 sequence (Q969V1 whole entry): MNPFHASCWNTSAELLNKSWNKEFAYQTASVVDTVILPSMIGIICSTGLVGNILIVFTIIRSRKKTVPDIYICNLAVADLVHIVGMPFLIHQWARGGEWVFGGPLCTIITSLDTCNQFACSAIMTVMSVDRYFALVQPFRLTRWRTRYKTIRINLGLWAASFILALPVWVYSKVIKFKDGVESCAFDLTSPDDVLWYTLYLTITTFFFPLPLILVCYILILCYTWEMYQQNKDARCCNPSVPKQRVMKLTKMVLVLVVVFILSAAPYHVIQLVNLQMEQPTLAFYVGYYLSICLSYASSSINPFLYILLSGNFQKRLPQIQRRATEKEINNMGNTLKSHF
- Experimental Details: SPA, displacement of [125I]-[Phe13,Tyr19]-hMCH, MCH-2R membranes
Positions of bridges follow the written chain, without caps; N, C: chain ends.
Measured pIC50 by item
Schema: pIC50 number; meaning minus log10 of the concentration expressed in molar units.

Please review the entries below; each comes with its answer.
| Binder | pIC50 |
| --- | --- |
| RCMLXRVYRPC (HELM PEPTIDE1{[ac].R.C.M.L.[O=C([C@H](Cc1ccc2ccccc2c1)N[*:1])[*:2]].R.V.Y.R.P.C.[am]}$PEPTIDE1,PEPTIDE1,3:R3-12:R3$$$V2.0; SMILES CSCC[C@@H]1NC(=O)[C@@H](NC(=O)[C@H](CCCNC(=N)N)NC(C)=O)CSSC[C@@H](C(N)=O)NC(=O)[C@@H]2CCCN2C(=O)[C@H](CCCNC(=N)N)NC(=O)[C@H](Cc2ccc(O)cc2)NC(=O)[C@H](C(C)C)NC(=O)[C@H](CCCNC(=N)N)NC(=O)[C@H](Cc2ccc3ccccc3c2)NC(=O)[C@H](CC(C)C)NC1=O) [SEQ. ID. NO. 21 (Nal(2′)^10 analog of Ac-hMCH(6-16)-NH2)] | 7.74 |
| Ac-RCMLSRVYRPC-NH2 (disulfide 2-11 (inferred), also called Ser^10 peptide) [SEQ. ID. NO. 26 (Ser^10 analog of Ac-hMCH(6-16)-NH2)] | 7.26 |
| Ac-RCMLGRVYRPC-NH2 (disulfide 2-11 (inferred), also called ID; NO; parent compound) [Ac-hMCH(6-16)-NH2] | 8.70 |
| XCMLQRVYRPC (HELM PEPTIDE1{[ac].[dR].C.M.L.Q.R.V.Y.R.P.C.[am]}$PEPTIDE1,PEPTIDE1,3:R3-12:R3$$$V2.0; SMILES CSCC[C@@H]1NC(=O)[C@@H](NC(=O)[C@@H](CCCNC(=N)N)NC(C)=O)CSSC[C@@H](C(N)=O)NC(=O)[C@@H]2CCCN2C(=O)[C@H](CCCNC(=N)N)NC(=O)[C@H](Cc2ccc(O)cc2)NC(=O)[C@H](C(C)C)NC(=O)[C@H](CCCNC(=N)N)NC(=O)[C@H](CCC(N)=O)NC(=O)[C@H](CC(C)C)NC1=O) [SEQ. ID. NO. 30 (D-Arg^6, Gln^10 analog of Ac-hMCH(6-16)-NH2)] | 5.85 |
| Ac-RCMLRRVYRPC-NH2 (disulfide 2-11 (inferred)) [SEQ. ID. NO. 23 (Arg^10 analog of Ac-hMCH(6-16)-NH2)] | 6.38 |
| Ac-RCMLFRVYRPC-NH2 (disulfide 2-11 (inferred)) [SEQ. ID. NO. 20 (Phe^10 analog of Ac-hMCH(6-16)-NH2)] | 8.72 |

Q. Specify reported pIC50 for the binder shown: Ac-RCMLKRVYRPC-NH2 (disulfide 2-11 (inferred)) [SEQ. ID. NO. 24 (Lys^10 analog of Ac-hMCH(6-16)-NH2)]
A. 5.84

meta.source: patent US20050020492A1
